# Assay Details: Compatibility (clarity) in water borne urethane/acrylic copolymer coating, Example 101
# Format: physicochemical
# Measurement Context: 2% by weight stabilizer; haziness = incompatibility
Measurement Type: Solidified coating in jar, clarity, 0 days

Solved cases (4 shown):
[
  {
    "Sample Smiles": "CC(=O)O.CCCCN(c1nc(NCCNCCNCCN)nc(N(CCCC)C2CC(C)(C)N(OC3CCCCC3)C(C)(C)C2)n1)C1CC(C)(C)N(OC2CCCCC2)C(C)(C)C1",
    "Assay Value": "clear"
  },
  {
    "Sample Smiles": "CCCCN(c1nc(NCCN2CCNCC2)nc(N(CCCC)C2CC(C)(C)N(OC3CCCCC3)C(C)(C)C2)n1)C1CC(C)(C)N(OC2CCCCC2)C(C)(C)C1.Cl",
    "Assay Value": "clear"
  },
  {
    "Sample Smiles": "CCCCN(c1nc(Nc2ccc(S(=O)(=O)O)cc2)nc(N(CCCC)C2CC(C)(C)N(OC3CCCCC3)C(C)(C)C2)n1)C1CC(C)(C)N(OC2CCCCC2)C(C)(C)C1.Cl",
    "Assay Value": "clear"
  },
  {
    "Sample Smiles": "CCCCCCCCON1C(C)(C)CC(OC(=O)CCCCCCCCC(=O)OC2CC(C)(C)N(OCCCCCCCC)C(C)(C)C2)CC1(C)C",
    "Assay Value": "hazy"
  }
]

Sure, the documented Solidified coating in jar, clarity, 0 days for CCCCN(c1nc(Nc2ccc(Cl)c(C(=O)O)c2)nc(N(CCCC)C2CC(C)(C)N(OC3CCCCC3)C(C)(C)C2)n1)C1CC(C)(C)N(OC2CCCCC2)C(C)(C)C1 is clear

Sure, the documented Solidified coating in jar, clarity, 0 days for CON1C(C)(C)CC(NCCOCCOCCNC2CC(C)(C)N(OC)C(C)(C)C2)CC1(C)C is clear
